measurement_description: Permeability from basolateral to apical side of human Caco2 cells
Assay type: ADME, cell-based
protocol_conditions: Caco-2, read-out: permeability
reported_endpoint: Papp B→A (×10⁻⁶ cm/s)
Give bare numbers, in ×10⁻⁶ cm/s.

Lab note: COC(=O)N[C@@H](C(=O)N1CCC[C@H]1c1ncc(-c2ccc(-c3ccc(-c4cnc([C@@H]5CCCN5C(=O)[C@H]5CCCO5)[nH]4)cc3)cc2)[nH]1)c1ccccc1 gave Papp B→A of 10.5

###

measurement_description: Plasma concentration in rat at 5 mg/kg, po after 4 hrs
Format: ADME, organism-based
Design: dose 5 mg/kg, route oral
For each entry below, report its concentration at 4 h value.
Numeric answer plus unit only.

>  <structure>
CCN(C)[C@@H](C(=O)N1CCC[C@H]1c1ncc(-c2ccc(-c3ccc(-c4cnc([C@@H]5CCCN5C(=O)[C@@H](c5ccccc5)N(C)CC)[nH]4)cc3)cc2)[nH]1)c1ccccc1

>  <concentration at 4 h>
2 nM

$$$$

Hi team, please reply with concentration at 4 h for each item in this list.
1. CCN(CC)[C@@H](C(=O)N1CCC[C@H]1c1ncc(-c2ccc(-c3ccc(-c4cnc([C@@H]5CCCN5C(=O)[C@H](C)NC(=O)OC)[nH]4)cc3)cc2)[nH]1)c1ccccc1
2. COC(=O)N[C@@H](C)C(=O)N1CCC[C@H]1c1ncc(-c2ccc(-c3ccc(-c4cnc([C@@H]5CCCN5C(=O)[C@H](C)NC(=O)OC)[nH]4)cc3)cc2)[nH]1
3. CCN(CC)[C@@H](C(=O)N1CCC[C@H]1c1ncc(-c2ccc(-c3ccc(-c4cnc([C@@H]5CCCN5C(=O)[C@@H](c5ccccc5)N(CC)CC)[nH]4)cc3)cc2)[nH]1)c1ccccc1
4. COC(=O)N[C@H](C(=O)N1CCC[C@H]1c1ncc(-c2ccc(-c3ccc(-c4cnc([C@@H]5CCCN5C(=O)[C@@H](NC(=O)OC)[C@@H](C)OC)[nH]4)cc3)cc2)[nH]1)[C@@H](C)OC

["30 nM", "57 nM", "6 nM", "121 nM"]

###

For each entry below, report its Vd value.
measurement_description: Volume of distribution in dog at 1 mg/kg, iv after 24 hrs
Type: ADME, organism-based, Canis lupus familiaris
Set-up: dose 1 mg/kg, route intravenous
protocol_conditions: in vivo
Answers are plain numbers, in L/kg.

// below: answered molecules
>  <structure>
O=C([C@@H](c1ccccc1)N1CCCCC1)N1CCC[C@H]1c1ncc(-c2ccc(-c3ccc(-c4cnc([C@@H]5CCCN5C(=O)[C@@H](c5ccccc5)N5CCCCC5)[nH]4)cc3)cc2)[nH]1

>  <unit_of_measurement>
L/kg

>  <Vd>
10

$$$$
>  <structure>
CN(C)[C@@H](C(=O)N1CCC[C@H]1c1ncc(-c2ccc(-c3ccc(-c4cnc([C@@H]5CCCN5C(=O)[C@H]5CCCO5)[nH]4)cc3)cc2)[nH]1)c1ccccc1

>  <unit_of_measurement>
L/kg

>  <Vd>
82

$$$$

With those in mind, consider the next molecule.
Lab note: COC(=O)N[C@@H](C(=O)N1CCC[C@H]1c1ncc(-c2ccc(-c3ccc(-c4cnc([C@@H]5CCCN5C(=O)[C@H]5CCCO5)[nH]4)cc3)cc2)[nH]1)c1ccccc1 gave Vd of 7.5

###

measurement_description: Drug uptake in rat liver at 5 mg/kg, po after 4 hrs
Type: ADME, organism-based
Design: dose 5 mg/kg, route oral
protocol_conditions: read-out: Drug uptake
Threshold 1000 nM: concentration at 4 h strictly smaller gives condition met, otherwise condition not met.

>  <structure>
CCN(C)[C@@H](C(=O)N1CCC[C@H]1c1ncc(-c2ccc(-c3ccc(-c4cnc([C@@H]5CCCN5C(=O)[C@@H](c5ccccc5)N(C)CC)[nH]4)cc3)cc2)[nH]1)c1ccccc1

>  <cat>
condition not met

$$$$

Next item in the queue.
# strict comparison: is reported concentration at 4 h < 1000 nM? input = COC(=O)N[C@H](C(=O)N1CCC[C@H]1c1ncc(-c2ccc(-c3ccc(-c4cnc([C@@H]5CCCN5C(=O)[C@@H](NC(=O)OC)[C@@H](C)OC)[nH]4)cc3)cc2)[nH]1)[C@@H](C)OC condition met

###

For each entry below, report its bioavailability value.
measurement_description: Oral bioavailability in dog at 3 mg/kg after 24 hrs
Type: ADME, organism-based, Canis lupus familiaris
protocol_conditions: plasma
Answers are plain numbers, in %.

// below: answered compounds
>  <structure>
O=C([C@@H](c1ccccc1)N1CCCCC1)N1CCC[C@H]1c1ncc(-c2ccc(-c3ccc(-c4cnc([C@@H]5CCCN5C(=O)[C@@H](c5ccccc5)N5CCCCC5)[nH]4)cc3)cc2)[nH]1

>  <unit_of_measurement>
%

>  <bioavailability>
14

$$$$
>  <structure>
COC(=O)N[C@@H](C(=O)N1CCC[C@H]1c1ncc(-c2ccc(-c3ccc(-c4cnc([C@@H]5CCCN5C(=O)[C@H]5CCCO5)[nH]4)cc3)cc2)[nH]1)c1ccccc1

>  <unit_of_measurement>
%

>  <bioavailability>
45

$$$$

With those in mind, consider the next compound.
Lab note: CN(C)[C@@H](C(=O)N1CCC[C@H]1c1ncc(-c2ccc(-c3ccc(-c4cnc([C@@H]5CCCN5C(=O)[C@H]5CCCO5)[nH]4)cc3)cc2)[nH]1)c1ccccc1 gave bioavailability of 60

###

measurement_description: Oral bioavailability in mouse at 20 mg/kg after 24 hrs
Assay type: ADME, organism-based
protocol_conditions: plasma
For each entry below, report its bioavailability value.
Give bare numbers, in %.

>  <structure>
COC(=O)N[C@@H](C(=O)N1CCC[C@H]1c1ncc(-c2ccc(-c3ccc(-c4cnc([C@@H]5CCCN5C(=O)[C@H]5CCCO5)[nH]4)cc3)cc2)[nH]1)c1ccccc1

>  <bioavailability / %>
17

$$$$

With those in mind, consider the next molecule.
Lab note: CN(C)[C@@H](C(=O)N1CCC[C@H]1c1ncc(-c2ccc(-c3ccc(-c4cnc([C@@H]5CCCN5C(=O)[C@H]5CCCO5)[nH]4)cc3)cc2)[nH]1)c1ccccc1 gave bioavailability of 6

###

measurement_description: Plasma concentration in rat at 5 mg/kg, po after 4 hrs
Type: ADME, organism-based
Set-up: dose 5 mg/kg, route oral
For each entry below, report its concentration at 4 h value.
Give bare numbers, in nM.

>  <structure>
COC(=O)N[C@H](C(=O)N1CCC[C@H]1c1nc(-c2ccc(-c3ccc(-c4c[nH]c([C@@H]5CCCN5C(=O)[C@@H](NC(=O)OC)C(C)C)n4)cc3)cc2)c[nH]1)C(C)C

>  <numeric_readout>
661

$$$$
>  <structure>
O=C([C@@H](c1ccccc1)N1CCCC1)N1CCC[C@H]1c1ncc(-c2ccc(-c3ccc(-c4cnc([C@@H]5CCCN5C(=O)[C@@H](c5ccccc5)N5CCCC5)[nH]4)cc3)cc2)[nH]1

>  <numeric_readout>
0.7

$$$$
>  <structure>
CCN(CC)[C@@H](C(=O)N1CCC[C@H]1c1ncc(-c2ccc(-c3ccc(-c4cnc([C@@H]5CCCN5C(=O)[C@@H](NC(=O)OC)C(C)C)[nH]4)cc3)cc2)[nH]1)c1ccccc1

>  <numeric_readout>
13

$$$$
>  <structure>
COC(=O)N[C@@H](C(=O)N1CCC[C@H]1c1ncc(-c2ccc(-c3ccc(-c4cnc([C@@H]5CCCN5C(=O)[C@@H]5CCCO5)[nH]4)cc3)cc2)[nH]1)c1ccccc1

>  <numeric_readout>
27

$$$$
>  <structure>
COC(=O)N[C@@H](C(=O)N1CCC[C@H]1c1ncc(-c2ccc(-c3ccc(-c4cnc([C@@H]5CCCN5C(=O)[C@H]5CCCO5)[nH]4)cc3)cc2)[nH]1)c1ccccc1

>  <numeric_readout>
234

$$$$

Hi team, please reply with concentration at 4 h for each item in this list.
1. O=C([C@@H](c1ccccc1)N1CCOCC1)N1CCC[C@H]1c1ncc(-c2ccc(-c3ccc(-c4cnc([C@@H]5CCCN5C(=O)[C@@H](c5ccccc5)N5CCOCC5)[nH]4)cc3)cc2)[nH]1
2. O=C([C@@H](c1ccccc1)N1CCCCC1)N1CCC[C@H]1c1ncc(-c2ccc(-c3ccc(-c4cnc([C@@H]5CCCN5C(=O)[C@@H](c5ccccc5)N5CCCCC5)[nH]4)cc3)cc2)[nH]1

11
13

Lab note: CN(C)[C@@H](C(=O)N1CCC[C@H]1c1ncc(-c2ccc(-c3ccc(-c4cnc([C@@H]5CCCN5C(=O)[C@@H]5CCCO5)[nH]4)cc3)cc2)[nH]1)c1ccccc1 gave concentration at 4 h of 27

###

For each entry below, report its concentration at 4 h value.
measurement_description: Drug uptake in rat liver at 5 mg/kg, po after 4 hrs
Assay type: ADME, organism-based
Set-up: dose 5 mg/kg, route oral
protocol_conditions: read-out: Drug uptake
One number for each entry, in nM.

// below: answered molecules
>  <structure>
CCN(CC)[C@@H](C(=O)N1CCC[C@H]1c1ncc(-c2ccc(-c3ccc(-c4cnc([C@@H]5CCCN5C(=O)[C@@H](c5ccccc5)N(CC)CC)[nH]4)cc3)cc2)[nH]1)c1ccccc1

>  <concentration at 4 h (nM)>
1090

$$$$
>  <structure>
CN(C)[C@@H](C(=O)N1CCC[C@H]1c1ncc(-c2ccc(-c3ccc(-c4cnc([C@@H]5CCCN5C(=O)[C@@H]5CCCO5)[nH]4)cc3)cc2)[nH]1)c1ccccc1

>  <concentration at 4 h (nM)>
563

$$$$
>  <structure>
O=C([C@@H](c1ccccc1)N1CCCC1)N1CCC[C@H]1c1ncc(-c2ccc(-c3ccc(-c4cnc([C@@H]5CCCN5C(=O)[C@@H](c5ccccc5)N5CCCC5)[nH]4)cc3)cc2)[nH]1

>  <concentration at 4 h (nM)>
80

$$$$
>  <structure>
COC(=O)NCC(=O)N1CCC[C@H]1c1ncc(-c2ccc(-c3ccc(-c4cnc([C@@H]5CCCN5C(=O)[C@H](NC(=O)OC)c5ccccc5)[nH]4)cc3)cc2)[nH]1

>  <concentration at 4 h (nM)>
26.2

$$$$

With those in mind, consider the next molecule.
Lab note: O=C([C@@H](c1ccccc1)N1CCOCC1)N1CCC[C@H]1c1ncc(-c2ccc(-c3ccc(-c4cnc([C@@H]5CCCN5C(=O)[C@@H](c5ccccc5)N5CCOCC5)[nH]4)cc3)cc2)[nH]1 gave concentration at 4 h of 239

FYI, the data here is from ChEMBL document CHEMBL3120093.
